Measured TGI accompanies every entry in the list below.
test system: NCI/ADR-RES ovarian; test: NCI tumour cell line growth inhibition, 48 h

# Molecule, TGI
measured = [
    ("O=C1CC(c2ccc(O)cc2)C2(O1)C(=O)OC(C(O)CO)C2O (stereo not drawn)", "> 100 µM"),
    ("COC(=O)[C@@]1(C)CC[C@]2(C)CC[C@]3(C)C4=CC=C5C(=CC(=O)C(O)=C5C)[C@]4(C)[C@@H](O)C[C@@]3(C)[C@@H]2C1", "34.8 µM"),
    ("CCOC(=O)COc1ccccc1/C=C1\\CCC(CN(C)C)C1=O (stereo not drawn)", "> 44 µM"),
    ("CC(=O)OCOC(=O)CN(CC(=O)OCOC(C)=O)Cc1cc2c(cc1OC(C)=O)Oc1cc(OC(C)=O)c(CN(CC(=O)OCOC(C)=O)CC(=O)OCOC(C)=O)cc1C21OC(=O)c2ccccc21", "75 µM"),
    ("Cc1cccc2nc3c(C(=O)NCCN(C)C)cccc3cc12", "6.23 µM"),
    ("Cc1ccc(C2=Nc3cccc4cccc(c34)N2)cc1", "> 100 µM"),
    ("O=C(NCCCCCCNC(=O)n1cc(F)c(=O)[nH]c1=O)NCCCOCCOCCOCCOCCOCCOCCOCCOCCOCCOCCOCCOCCOCCOCCOCCOCCOCCOCCOCCOCCOCCCNC(=O)C(O)C(O)C(O)C(O)CO (stereo not drawn)", "> 100 µM"),
    ("O=S(=O)(O)c1ccc(O)c2ncc(Cl)cc12", "> 100 µM"),
    ("CS(=O)(=O)N1CC(CCl)c2ccc([N+](=O)[O-])cc21 (stereo not drawn)", "> 100 µM"),
    ("NC(=O)N=C(N(Cc1ccccc1)Cc1ccccc1)N(Cc1ccccc1)Cc1ccccc1", "> 100 µM"),
    ("C=CC/C=C/Cc1csc(C(C)(C)C(O)C/C=C/C(=C)CCNC(=O)OC)n1 (stereo not drawn)", "> 100 µM"),
    ("NCCn1c(=O)[nH]c(=O)[nH]c1=S", "> 100 µM"),
    ("CCCCCCCCCCC(C(=O)O)C1(C(=O)O)CCC(=O)O1 (stereo not drawn)", "> 100 µM"),
]

====

tested on: SR leukemia; experiment: NCI tumour cell line growth inhibition, 48 h

# Molecule, TGI
measured = [
    ("CCc1ccccc1NC(=O)C(=O)CC(=O)c1sc(Nc2ccccc2)nc1C", "> 100 µM"),
    ("C[C@@H]1C[C@H]2CC[C@H](O2)[C@H](C)C(=O)O[C@@H](C)C[C@@H]2CC[C@@H](O2)[C@@H](C)C(=O)O[C@H](C)C[C@H]2CC[C@H](O2)[C@H](C)C(=O)O[C@@H](C)C[C@@H]2CC[C@@H](O2)[C@@H](C)C(=O)O1", "> 42.8 µM"),
    ("O=C1c2c(ccc3c2CCCC3)CC12Cc1ccc3c(c1C2=O)CCCC3", "> 100 µM"),
    ("CN1CCC(n2cnc(-c3ccc(F)cc3)c2-c2ccnc(NCCO)n2)CC1", "> 25 µM"),
    ("NCCn1c(=O)[nH]c(=O)[nH]c1=S", "> 100 µM"),
    ("O=C(c1cccc2ccccc12)C1(Br)S(=O)(=O)OCCOS1(=O)=O", "> 100 µM"),
    ("COc1ccc(/C=C(/C#N)C(N)=O)cc1OC", "> 100 µM"),
    ("COC(=O)[C@H](C[C@H](Cc1ccccc1)NC(=O)c1csc([C@@H](C[C@H](C(C)C)N(C)C(=O)[C@@H](NC(=O)[C@H]2CCCCN2C)C(C)C)OC(C)=O)n1)NC(=O)OCc1ccccc1", "> 4.29 µM"),
    ("COC(=O)C(CC12CC3CC(CC(C3)C1)C2)NC(=O)C(N)CC(=O)O (configuration not stated)", "> 100 µM"),
    ("CC(=O)NC(CS/N=N/c1nc[nH]c1C(N)=O)C(=O)O (configuration not stated)", "0.0673 µM"),
    ("COc1cc(C=C2C(C)=NN(c3cccc(Cl)c3)C23SCC(=O)N3c2nc3ccccc3s2)ccc1O (configuration not stated)", "29.2 µM"),
    ("C#CCOCn1cnc2c(Cl)ncnc21", "> 100 µM"),
]

Origin of measurements: PubChem BioAssay (NCI)
